Target: human DGKα (Homo sapiens)
Construct: TVMV protease cleavage site (C); Hexa-His (C); made in house; host or cells: Sf9 insect cells (baculovirus, Bac-to-Bac)
Assay: DGKα LIPGLO assay (extruded liposome substrate), in vitro DGK inhibition
Format: biochemical
Details: liposome (LIPGLO) assay; read-out: DGKa LIPGLO IC50
Listed next: entries and their corresponding pIC50.
In simple prose, pIC50 is minus the logarithm base ten of a concentration in moles per litre.

Consider the reported pIC50 for these molecules:
C[C@@H]1CN(c2c(F)c(=O)n(C)c3ccc(C#N)nc23)[C@@H](C)CN1C(c1ccc(F)cc1)c1ccc(F)cc1	6.46
C[C@@H]1CN(c2cc(=O)n(C)c3ccc(C#N)nc23)[C@@H](C)CN1C(c1ccc(F)cc1)c1nccs1 (single isomer, unassigned) [Example 711]	7.16
Cc1cccc(C(c2ccc(F)cc2)N2C[C@H](C)N(c3cc(=O)n(C)c4ccc(C#N)nc34)C[C@H]2C)c1 (single isomer, unassigned) [Example 224]	5.82
CC(c1cccc(C(F)(F)F)n1)N1C[C@H](C)N(c2cc(=O)n(C)c3ccc(C#N)nc23)C[C@H]1C (single isomer, unassigned) [Example 636]	4.92
C[C@@H]1CN(c2cc(=O)n(C)c3ccc(C#N)nc23)[C@@H](C)CN1C(c1ccc(F)cn1)c1cccc2c1OC(C)(C)C2 (single isomer, unassigned) [Example 465]	6.70

Next molecule, pIC50 to be filled in.
Prompt line: Look up and report measured pIC50 (human DGKα (Homo sapiens)) for the following molecule: CC[C@H]1CN(C(C)c2ccc(OC(F)F)cc2)[C@H](C)CN1c1cc(=O)n(C)c2ccc(C#N)nc12 (single isomer, unassigned) [Example 1145]
Response line: 6.51

###

Listed next: entries and their corresponding IC50.
Biological target: human DGKα (Homo sapiens)
Construct: TVMV protease cleavage site (C); Hexa-His (C); made in house; host or cells: Sf9 insect cells (baculovirus, Bac-to-Bac)
Assay: DGKα LIPGLO assay (extruded liposome substrate), in vitro DGK inhibition
Format: biochemical
Conditions: liposome (LIPGLO) assay; read-out: DGKa LIPGLO IC50
Hi! Could you send only the number? It should be in nM, unit omitted.

C[C@@H]1CN(c2cc(=O)n(C)c3ccc(C#N)nc23)[C@@H](C)CN1C(c1ccc(Cl)cc1)c1ccc(F)cn1 (single isomer, unassigned) [Example 191]	200
CC(C)[C@@H]1CN(c2cc(=O)n(C)c3ccc(C#N)nc23)CCN1C(c1ccc(F)cc1)c1ccc(F)cc1	7500

Next compound, IC50 to be filled in.
Prompt line: Look up and report measured IC50 for this entry: CC(C)c1ccc(CN2C[C@H](C)N(c3cc(=O)n(C)c4ccc(C#N)nc34)C[C@H]2C)cc1
Response line: 850

###

Molecular target: human DGKα (Homo sapiens, UniProt P23743)
Construct: TVMV protease cleavage site (C); Hexa-His (C); made in house; host or cells: Sf9 insect cells (baculovirus, Bac-to-Bac)
Sequence (P23743 with tags, fused parts or gaps): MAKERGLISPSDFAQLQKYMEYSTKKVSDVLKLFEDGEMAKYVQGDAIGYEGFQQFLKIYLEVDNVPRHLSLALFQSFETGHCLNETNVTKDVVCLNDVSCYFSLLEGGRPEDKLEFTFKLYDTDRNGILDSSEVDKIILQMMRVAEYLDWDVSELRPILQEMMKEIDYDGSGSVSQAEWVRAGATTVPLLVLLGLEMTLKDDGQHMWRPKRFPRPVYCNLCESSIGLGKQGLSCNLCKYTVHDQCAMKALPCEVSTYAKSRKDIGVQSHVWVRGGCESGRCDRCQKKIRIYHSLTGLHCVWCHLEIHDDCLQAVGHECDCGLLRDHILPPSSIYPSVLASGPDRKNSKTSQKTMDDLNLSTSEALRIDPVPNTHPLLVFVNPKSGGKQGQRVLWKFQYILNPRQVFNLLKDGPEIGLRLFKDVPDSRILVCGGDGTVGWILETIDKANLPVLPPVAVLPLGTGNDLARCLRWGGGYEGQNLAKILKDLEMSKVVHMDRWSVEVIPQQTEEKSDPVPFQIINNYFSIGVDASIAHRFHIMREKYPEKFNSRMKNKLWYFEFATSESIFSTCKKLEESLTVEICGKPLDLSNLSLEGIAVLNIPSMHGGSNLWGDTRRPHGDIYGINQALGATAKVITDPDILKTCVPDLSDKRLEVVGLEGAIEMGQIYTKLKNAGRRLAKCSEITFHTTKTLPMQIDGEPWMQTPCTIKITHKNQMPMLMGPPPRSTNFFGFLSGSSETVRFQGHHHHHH
Assay: DGKα LIPGLO assay (extruded liposome substrate), in vitro DGK inhibition
Type: biochemical
Conditions: liposome (LIPGLO) assay; read-out: DGKa LIPGLO IC50
pIC50: −log10 of the molar value.
Binary call on pIC50: Fulfilled from 5 upward, Not fulfilled beneath that.

# example entries with known answers
CC[C@H]1CN(C(c2ccc(F)cc2)c2cccc(C(F)(F)F)n2)[C@H](C)CN1c1cc(=O)n(C)c2ccc(C#N)nc12 (single isomer, unassigned) [Example 1134]	Fulfilled
CC(c1cc(OC(F)F)ccc1F)N1C[C@H](C)N(c2cc(=O)n(C)c3ccc(C#N)nc23)C[C@H]1C (single isomer, unassigned) [Example 1228]	Fulfilled
C[C@@H]1CN(c2cc(=O)n(C)c3ccc(C#N)nc23)[C@@H](C)CN1C(c1ccc(Cl)cc1)c1ccc(Cl)cn1 (single isomer, unassigned) [Example 202]	Fulfilled
CCc1ccccc1C(c1ccc(F)cc1)N1C[C@H](C)N(c2cc(=O)n(C)c3ccc(OC)nc23)C[C@H]1C (single isomer, unassigned) [Example 236]	Not fulfilled
C[C@@H]1CN(c2cc(=O)n(C)c3ccc(C#N)nc23)[C@@H](C)CN1C(c1ccc(F)cc1)C(F)(F)CO (single isomer, unassigned) [Example 1311]	Not fulfilled

Prompt line: Decide: pIC50 of C[C@@H]1CN(c2cc(=O)n(C)c3ccc(C#N)nc23)[C@@H](C)CN1C(c1cccc(F)c1)c1cccc2c1OCCCO2 (single isomer, unassigned) >= 5?
Response line: Not fulfilled

Prompt line: Decide: pIC50 of CC[C@H]1CN(C(c2ccc(F)cc2)c2ccc(C#N)cc2)[C@H](CC)CN1c1cc(=O)n(C)c2ccc(C#N)nc12 (some centres unmarked) [Example 1035] >= 5?
Response line: Fulfilled

Prompt line: Decide: pIC50 of C[C@@H]1CN(c2cc(=O)n(C)c3ccc(C#N)nc23)[C@@H](C)CN1C(c1ccc(F)cc1)c1ncco1 (some centres unmarked) [Example 717] >= 5?
Response line: Fulfilled

###

Molecular target: human DGKζ (Homo sapiens, UniProt Q13574)
Construct: TVMV protease cleavage site (C); Hexa-His (C); made in house; host or cells: Sf9 insect cells (baculovirus, Bac-to-Bac)
Sequence (Q13574 with tags, fused parts or gaps isoform Q13574-4): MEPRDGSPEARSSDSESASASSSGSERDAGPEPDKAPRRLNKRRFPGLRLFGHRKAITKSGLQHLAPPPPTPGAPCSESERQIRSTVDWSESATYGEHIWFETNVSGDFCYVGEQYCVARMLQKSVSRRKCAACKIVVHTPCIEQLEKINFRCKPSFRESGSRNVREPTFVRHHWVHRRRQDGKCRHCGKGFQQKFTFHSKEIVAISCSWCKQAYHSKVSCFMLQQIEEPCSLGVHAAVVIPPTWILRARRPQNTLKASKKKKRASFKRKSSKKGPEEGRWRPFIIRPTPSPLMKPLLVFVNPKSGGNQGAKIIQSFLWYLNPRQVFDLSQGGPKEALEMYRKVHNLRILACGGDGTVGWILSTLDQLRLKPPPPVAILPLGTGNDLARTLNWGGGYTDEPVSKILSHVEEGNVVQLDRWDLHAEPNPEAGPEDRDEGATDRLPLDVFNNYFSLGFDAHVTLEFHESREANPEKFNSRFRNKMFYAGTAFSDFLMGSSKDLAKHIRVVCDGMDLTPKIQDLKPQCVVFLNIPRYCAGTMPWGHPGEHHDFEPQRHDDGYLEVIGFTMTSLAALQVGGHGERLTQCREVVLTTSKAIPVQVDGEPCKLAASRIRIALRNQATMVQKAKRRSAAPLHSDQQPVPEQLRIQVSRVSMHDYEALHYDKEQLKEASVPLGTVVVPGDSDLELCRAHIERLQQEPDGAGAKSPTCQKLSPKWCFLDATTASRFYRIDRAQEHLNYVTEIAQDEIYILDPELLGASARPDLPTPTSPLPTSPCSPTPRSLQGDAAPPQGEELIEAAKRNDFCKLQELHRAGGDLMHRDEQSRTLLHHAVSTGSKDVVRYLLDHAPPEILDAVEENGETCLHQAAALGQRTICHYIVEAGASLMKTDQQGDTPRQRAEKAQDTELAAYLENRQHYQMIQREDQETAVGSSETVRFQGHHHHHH
Experiment: DGKζ LIPGLO assay (extruded liposome substrate), in vitro DGK inhibition
Type: biochemical
Conditions: liposome (LIPGLO) assay; read-out: DGKz LIPGLO IC50
IC50 less than 10 µM is Condition met; IC50 greater than or equal to 10 µM is Condition not met.

# example entries with known answers
Cn1c(=O)c(C#N)c(N2CCN(C(c3ccc(F)cc3)c3ccc(F)cc3)C(CO)C2)c2nc(C#N)ccc21 (single isomer, unassigned) [Example 15]	Condition met
CC[C@H]1CN(C(c2ccc(F)cc2)c2ccccn2)[C@H](CC)CN1c1cc(=O)n(C)c2ccc(C#N)nc12 (single isomer, unassigned) [Example 1044]	Condition met
C[C@@H]1CN(c2cc(=O)n(C)c3ccc(C#N)nc23)[C@@H](C)CN1C(c1ccc(F)cn1)c1cccc2c1OC(C)(C)C2 (single isomer, unassigned) [Example 465]	Condition met

Prompt line: A record lists CC[C@H]1CN(C(C)c2ccc(OC(F)(F)F)cc2)[C@H](COC)CN1c1cc(=O)n(C)c2ccc(C#N)nc12 (single isomer, unassigned) [Example 1409] . Is its IC50 below 10 µM?
Response line: Condition met

Prompt line: A record lists CC(C)OC(=O)C1CN(c2cc(=O)n(C)c3ccc(C#N)nc23)CCN1C(c1ccc(F)cc1)c1ccc(F)cc1 (single isomer, unassigned) [Example 63] . Is its IC50 below 10 µM?
Response line: Condition not met

Prompt line: A record lists C[C@@H]1CN(c2cc(=O)n(C)c3ccc(C#N)nc23)[C@@H](C)CN1C(c1cccc(F)c1)c1cccc(F)c1 . Is its IC50 below 10 µM?
Response line: Condition met

Prompt line: A record lists C[C@@H]1CN(c2cc(=O)n(C)c3ccc(C#N)nc23)[C@@H](C)CN1C(c1ccc(F)cc1)c1ccon1 (single isomer, unassigned) [Example 706] . Is its IC50 below 10 µM?
Response line: Condition not met

Prompt line: A record lists Cn1c(=O)cc(N2CC(C3CC3)N(C(c3ccc(F)cc3)c3ccc(F)cc3)CC2C2CC2)c2nc(C#N)ccc21 (single isomer, unassigned) [Example 152] . Is its IC50 below 10 µM?
Response line: Condition not met

###

Listed next: entries and their corresponding log10(IC50).
Molecular target: human DGKζ (Homo sapiens, UniProt Q13574)
Construct: TVMV protease cleavage site (C); Hexa-His (C); made in house; host or cells: Sf9 insect cells (baculovirus, Bac-to-Bac)
Assay: DGKζ LIPGLO assay (extruded liposome substrate), in vitro DGK inhibition
Type: biochemical
Conditions: liposome (LIPGLO) assay; read-out: DGKz LIPGLO IC50
// stored as log10 of IC50 expressed in µM

Consider the reported log10(IC50) for these compounds:
C[C@@H]1CN(c2cc(=O)n(C)c3ccc(C#N)nc23)[C@@H](C)CN1C(c1cccc(F)c1)c1cccc2c1OCCCO2 (single isomer, unassigned) [Example 445]	-0.38
C[C@@H]1CN(c2cc(=O)n(C)c3ccc(C#N)nc23)[C@@H](C)CN1Cc1cccc2c1ccn2C [Example 606]	-1.18

Prompt line: Look up and report measured log10(IC50) (human DGKζ (Homo sapiens, UniProt Q13574)) for the following compound: CC[C@@H]1CN(c2cc(=O)n(C)c3ccc(C#N)nc23)[C@@H](C)CN1C(c1ccc(F)cc1)c1ncccc1F (stereo partly drawn) [Example 1104]
Response line: -0.05

Prompt line: Look up and report measured log10(IC50) (human DGKζ (Homo sapiens, UniProt Q13574)) for the following compound: CC[C@H]1CN(C(c2ccc(F)cc2)c2ncccc2F)[C@H](CC)CN1c1cc(=O)n(C)c2ccc(C#N)nc12 (single isomer, unassigned) [Example 1038]
Response line: -0.07

Prompt line: Look up and report measured log10(IC50) (human DGKζ (Homo sapiens, UniProt Q13574)) for the following compound: C[C@@H]1CN(c2cc(=O)n(C)c3ccc(C#N)nc23)[C@@H](C)CN1C(c1ccc(F)cc1)c1ccc(C(F)(F)F)cc1 (stereo partly drawn) [Example 294]
Response line: -0.48

Prompt line: Look up and report measured log10(IC50) (human DGKζ (Homo sapiens, UniProt Q13574)) for the following compound: C[C@H]1CN(c2cc(=O)n(C)c3ccc(C#N)nc23)CCN1C(c1ccc(F)cc1)c1ccc(F)cc1 [Example 35]
Response line: -0.11
